Experiment: in vitro
Details: human
Measurement kind: CC50

Please report the measured CC50 for COc1cc(NC(=O)Nc2cccc(CNC(=O)O[C@H]3CCOC3)c2)ccc1-c1cnco1
> 10 µM

Please list CC50 recorded for the compound COc1c(C)c2c(c(O)c1C/C=C(\C)CCC(=O)O)C(=O)OC2
> 10 µM

Fill in CC50 for record COc1c(C)c2c(c(O)c1C/C=C(\C)CCC(=O)OCCN1CCOCC1)C(=O)OC2 [Mycophenolate mofetil, mycophenolate mofetil]
> 10 µM

State its CC50 for this compound: CC[C@H](CC#N)OC(=O)N[C@@H](C)c1cccc(NC(=O)Nc2ccc(-c3cnco3)c(OC)c2)c1
> 10 µM

Input NC(=O)c1ncn([C@@H]2O[C@H](CO)[C@@H](O)[C@H]2O)n1 , output reported CC50.
> 100 µM
